Test system: HUI77 binding to denatured collagen IV
Assay: Competition ELISA: synthetic peptides blocking HUI77 binding to heat denatured collagen IV
Set-up: species or system human
Settings: peptide inhibitor concentration 10 μM; average of two studies
Square brackets hold non-standard residues; d marks the D form. Ends that are not written are not given here. Hyp = O=C(O)[C@@H]1C[C@@H](O)CN1
% INHIBITION OF BINDING OF HUI77 TO DENATURED COLLAGEN IV of 6% or higher: 1. Under 6%: -1.

                                   substance                   target_or_test_system  class_label
 0  PGPPGPPGP (PGP[Hyp]GP[Hyp]GP) [SEQ ID NO: 29]  HUI77 binding to denatured collagen IV            1
 1  PGPPGPPGPY (PGP[Hyp]GP[Hyp]GPY) [SEQ ID NO: 28]  HUI77 binding to denatured collagen IV            1
 2   LPGTPG (L[Hyp]GT[Hyp]G) [SEQ ID NO: 27]  HUI77 binding to denatured collagen IV           -1
 3  CTWPRHHTTDALL [SEQ ID NO: 39, reference compound]  HUI77 binding to denatured collagen IV            1
 4  PGAKGLPGP ([Hyp]GAKGLPGP) [SEQ ID NO: 17]  HUI77 binding to denatured collagen IV            1
 5   LPGSPG (L[Hyp]GS[Hyp]G) [SEQ ID NO: 26]  HUI77 binding to denatured collagen IV            1
 6  GPPGPPGP (GPXGPXGP; MOD_RES (3) Hydroxyproline; MOD_RES (6) Hydroxyproline) [SEQ ID NO: 31]  HUI77 binding to denatured collagen IV            1
 7  LPGPPGPPGP (LPGP[Hyp]GP[Hyp]GP) [SEQ ID NO: 20]  HUI77 binding to denatured collagen IV            1
 8  LPGPPGPPG (LPGP[Hyp]GP[Hyp]G) [SEQ ID NO: 21]  HUI77 binding to denatured collagen IV            1
 9  F-Hyp-G-P-Hyp-G-P-D-G-L-P-G-S-M-G-P-Hyp-G (F[Hyp]GP[Hyp]GPDGLPGSMGP[Hyp]G) [SEQ ID NO: 36]  HUI77 binding to denatured collagen IV           -1
10  LPGFPGC [SEQ ID NO: 37, reference compound]  HUI77 binding to denatured collagen IV            1

// data source = patent US20080008707A1
